STUDY_TARGET: Fyn (UniProt P06241)
Sequence (P06241 whole entry, looked up): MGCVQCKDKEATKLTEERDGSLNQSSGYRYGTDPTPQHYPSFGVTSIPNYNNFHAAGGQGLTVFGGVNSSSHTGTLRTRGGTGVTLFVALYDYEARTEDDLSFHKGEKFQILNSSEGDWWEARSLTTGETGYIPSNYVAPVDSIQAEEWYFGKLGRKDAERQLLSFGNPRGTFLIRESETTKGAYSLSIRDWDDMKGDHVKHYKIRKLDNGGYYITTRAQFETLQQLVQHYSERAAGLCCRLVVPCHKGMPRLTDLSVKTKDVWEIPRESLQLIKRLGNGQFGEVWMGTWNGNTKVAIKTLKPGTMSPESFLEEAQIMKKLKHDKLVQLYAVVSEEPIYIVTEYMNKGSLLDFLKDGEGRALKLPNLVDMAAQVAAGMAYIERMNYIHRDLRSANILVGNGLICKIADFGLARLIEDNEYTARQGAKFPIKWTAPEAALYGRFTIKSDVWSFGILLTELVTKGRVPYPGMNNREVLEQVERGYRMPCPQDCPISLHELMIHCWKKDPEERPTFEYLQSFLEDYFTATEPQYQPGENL
PROTOCOL_DETAILS: phosphorylation enrichment, bacterial display (enrichment ratio); higher = better substrate or ligand; peptides without Tyr show the background;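 note: 11-residue human phosphosite peptides and single-mutation variants displayed on the E. coli surface, counted by deep sequencing, each peptide's frequency after selection divided by its frequency in the unselected input library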;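 note: frequency after pTyr selection over input frequency; kinase dosed for 20-30% of maximal phosphorylation in three min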
MEASURED_ENDPOINT: phosphorylation enrichment

So what's the measured phosphorylation enrichment for this one? SASSSYSRSRS [SRRM4_Y549_R547S]
0.462

So what's the measured phosphorylation enrichment for this one? TDKLFYIFTPG [SLC27A4_Y243_S247P_YF]
0.392

So what's the measured phosphorylation enrichment for this one? SVETPYGSVTF [NDRG2_Y47]
5.93

So what's the measured phosphorylation enrichment for this one? PQQLWYTHEKK [UBTF_Y207]
0.409

So what's the measured phosphorylation enrichment for this one? SFLSYYTSHVQ [NEFL_Y443_P440L]
0.585

So what's the measured phosphorylation enrichment for this one? MSFDRYMAVCH [OR2A5_Y123_I126V_YF]
0.585

So what's the measured phosphorylation enrichment for this one? CTTIHYNYMHN [TP53_Y234_C238H]
0.447

So what's the measured phosphorylation enrichment for this one? DFFDLYGGEKL [PTPN11_Y66_F71L_YF]
2.1

So what's the measured phosphorylation enrichment for this one? WLFFRYLAIGC [ATP2A2_Y836]
0.477

So what's the measured phosphorylation enrichment for this one? SFDLDYDSVQP [MYC_Y16_N11S_YF]
0.833

So what's the measured phosphorylation enrichment for this one? DGTESYLTVSS [PLK1_Y462]
0.453

So what's the measured phosphorylation enrichment for this one? LINLKYSVEEE [PCDH19_Y27]
0.579

So what's the measured phosphorylation enrichment for this one? KWRGQYDVAIE [BTK_Y425_K430E]
0.39

So what's the measured phosphorylation enrichment for this one? FAAAGYGSLEA [EPHA10_Y959]
0.443

So what's the measured phosphorylation enrichment for this one? REGDKYVSHGA [ASS1_Y113_A111D]
0.505

So what's the measured phosphorylation enrichment for this one? KYWREYILSLE [GPC3_Y299]
0.427

So what's the measured phosphorylation enrichment for this one? IDSTPYRQWFE [RPS8_Y109_YF]
0.302

So what's the measured phosphorylation enrichment for this one? AKRKNYAPVAM [CFAP47_Y557]
0.393

So what's the measured phosphorylation enrichment for this one? RFLRGYRQYAY [HLA-A_Y137_D140Y]
1.29

So what's the measured phosphorylation enrichment for this one? NSFKFYMSDDI [ATRX_Y204_C200S_YF]
0.517

So what's the measured phosphorylation enrichment for this one? QMEKICTQQIQ [CCNB1IP1_Y125_Y125C]
0.486

So what's the measured phosphorylation enrichment for this one? KEELAYLKKNH [KRT14_Y248]
0.395

So what's the measured phosphorylation enrichment for this one? CPYNLYAAQLS [HGD_Y40_E42A]
3.15

So what's the measured phosphorylation enrichment for this one? PSPTRYSLSPS [RANBP2_Y785]
0.537

So what's the measured phosphorylation enrichment for this one? HNELYYEAAEH [VANGL1_Y345_E347A]
1.52

So what's the measured phosphorylation enrichment for this one? LKGIRYLTSGL [PIGA_Y82_R77L]
1.05

So what's the measured phosphorylation enrichment for this one? VTVLDYDKIGK [SYT1_Y365]
0.343

So what's the measured phosphorylation enrichment for this one? STDDGYIDLQF [TMEM230_Y29]
0.564

So what's the measured phosphorylation enrichment for this one? IHETTYNSIMK [ACTA1_Y281]
0.746
